Test: In vivo pharmacokinetics in rats, intravenous injection and oral administration
Parameters: species or system Sprague Dawley rats
Conditions: male, Sprague-Dawley, plasma; rat, oral administration 1 mg/kg
Collected AUC(0-inf) values appear next to each entry.
Quick note: give the figure in ng·h/mL, leave out the unit.

Examples from the recorded data:
O=C(O)CCc1[nH]c2ccc(OCc3ccc(C4CCCC4)c(C(F)(F)F)c3)cc2c1F = 2340
O=C(O)CCc1[nH]c2ccc(OCc3ccc(C4CCCC4)c(C(F)(F)F)c3)cc2c1Cl = 1190
Cc1c(CCC(=O)O)[nH]c2ccc(OCc3ccc(C4CCCC4)c(C(F)(F)F)c3)cc12 = 649

// below: AUC(0-inf) requested for another molecule
# lookup: AUC(0-inf) of O=C(O)C[C@H]1CCc2c1[nH]c1ccc(OCc3ccc(C4CCCC4)c(C(F)(F)F)c3)cc21 [APD334, reference compound]
4440

====

Experiment: In vivo pharmacokinetics in rats, intravenous injection and oral administration
Set-up: species or system Sprague Dawley rats
Conditions: male, Sprague-Dawley, plasma; rat, intravenous administration 1 mg/kg
ASSAY ENDPOINT: half-life (min)
Just the number please, in min, no unit attached.

Which half-life value is on record for O=C(O)CCc1[nH]c2ccc(OCc3ccc(C4CCCC4)c(C(F)(F)F)c3)cc2c1F [Compound 14] ?
246

Note, next up: O=C(O)C[C@H]1CCc2c1[nH]c1ccc(OCc3ccc(C4CCCC4)c(C(F)(F)F)c3)cc21 [APD334, reference compound]
312

What about this compound? Cc1c(CCC(=O)O)[nH]c2ccc(OCc3ccc(C4CCCC4)c(C(F)(F)F)c3)cc12 [Compound 16]
84

Repeat for the following compound: O=C(O)CCc1[nH]c2ccc(OCc3ccc(C4CCCC4)c(C(F)(F)F)c3)cc2c1Cl [Compound 13]
168

====

Experiment: In vivo pharmacokinetics in rats, intravenous injection and oral administration
Set-up: species or system Sprague Dawley rats
Settings: male, Sprague-Dawley, plasma; rat, intravenous administration 1 mg/kg
Parameter AUC(0-inf): see the listing below.
All answers are understood in ng·h/mL, so give the number only.

O=C(O)CCc1[nH]c2ccc(OCc3ccc(C4CCCC4)c(C(F)(F)F)c3)cc2c1Cl [Compound 13] = 4750

Item Cc1c(CCC(=O)O)[nH]c2ccc(OCc3ccc(C4CCCC4)c(C(F)(F)F)c3)cc12 [Compound 16] has what recorded AUC(0-inf)?
4140

Consider next the compound O=C(O)C[C@H]1CCc2c1[nH]c1ccc(OCc3ccc(C4CCCC4)c(C(F)(F)F)c3)cc21 [APD334, reference compound] in the same way.
9410

Try the compound O=C(O)CCc1[nH]c2ccc(OCc3ccc(C4CCCC4)c(C(F)(F)F)c3)cc2c1F [Compound 14]
10800

====

EC50 values, listed per item
Molecular target: S1P1 (Homo sapiens, UniProt P21453)
Construct: host or cells: CHO-K1
Sequence (P21453 whole entry): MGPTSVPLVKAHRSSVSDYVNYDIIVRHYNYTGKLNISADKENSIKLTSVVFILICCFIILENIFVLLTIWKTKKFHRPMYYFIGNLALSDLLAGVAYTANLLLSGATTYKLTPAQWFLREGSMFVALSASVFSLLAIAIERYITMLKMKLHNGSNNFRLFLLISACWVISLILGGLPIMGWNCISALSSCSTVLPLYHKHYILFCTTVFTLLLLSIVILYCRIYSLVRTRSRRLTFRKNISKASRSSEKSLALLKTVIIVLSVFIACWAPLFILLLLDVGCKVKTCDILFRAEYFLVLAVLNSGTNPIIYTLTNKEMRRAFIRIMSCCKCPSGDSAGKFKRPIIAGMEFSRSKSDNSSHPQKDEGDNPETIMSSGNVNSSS
Test: S1P1 mediated inhibition of forskolin induced cAMP (PathHunter CHO-K1 EDG1 cells)
Assay type: cell-based
Write the number in nM without appending the unit.

Worked examples, 3 compounds total:
O=C(O)CCc1[nH]c2ccc(OCc3ccc(C4CCCC4)c(C(F)(F)F)c3)cc2c1F = 0.07
O=C(O)CCc1cc2cc(OCc3ccc(C4CCOC4)c(C(F)(F)F)c3)ccc2[nH]1 (stereo not shown) = 0.18
O=C(O)CCc1[nH]c2ccc(OCc3ccc(C4CCOCC4)c(C(F)(F)F)c3)cc2c1F = 0.3

Continue with the next compound.
# EC50 lookup, item O=C(O)CCc1[nH]c2ccc(OCc3ccc(C4CCOC4)c(C(F)(F)F)c3)cc2c1F (stereo not shown)
0.057

The reported numbers originate from patent US12195457B2.
